Measured Affinity ELISA pH 6.0 by item
biological target: T1, human Ror2 (human, UniProt Q01974 34-403, limits assumed); assay: ELISA, human Ror2, pH 6.0
T1 construct: also called hROR2; receptor tyrosine kinase-like orphan receptor 2
T1 sequence (Q01974 34-403 limits assumed): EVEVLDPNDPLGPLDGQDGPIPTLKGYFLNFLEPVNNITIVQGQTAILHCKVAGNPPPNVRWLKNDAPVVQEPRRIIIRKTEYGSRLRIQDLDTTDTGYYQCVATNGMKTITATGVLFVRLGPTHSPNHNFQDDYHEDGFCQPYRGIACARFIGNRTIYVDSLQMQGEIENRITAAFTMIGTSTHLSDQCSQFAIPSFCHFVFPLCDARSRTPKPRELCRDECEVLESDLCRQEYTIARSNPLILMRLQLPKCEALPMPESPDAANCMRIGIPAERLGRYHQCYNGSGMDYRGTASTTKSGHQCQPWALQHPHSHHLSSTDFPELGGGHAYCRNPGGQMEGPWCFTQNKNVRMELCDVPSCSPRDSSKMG
Answer using only a numeral; do not append any unit.

Some binders with known Affinity ELISA pH 6.0 results, for comparison:
HC-N052L (antibody, V domains shown) VH: EVQLQQSGPELVKPGASVKISCKTSGYTFTEYTMHWMKQSHRKSLEWIGGILTNNGGTGYNQKFKGKATLTVDKSSSTAYMELRSLTSEDSAVYFCARGSLYSYGNSYFDYWGQGTLVTVSS VL: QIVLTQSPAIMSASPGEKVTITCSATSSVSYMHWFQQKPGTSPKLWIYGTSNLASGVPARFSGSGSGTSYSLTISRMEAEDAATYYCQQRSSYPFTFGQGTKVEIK; 0.911
HC-A097T (antibody, V domains shown) VH: EVQLQQSGPELVKPGASVKISCKTSGYTFTEYTMHWMKQSHRKSLEWIGGINTNNGGTGYNQKFKGKATLTVDKSSSTAYMELRSLTSEDSAVYFCTRGSLYSYGNSYFDYWGQGTLVTVSS VL: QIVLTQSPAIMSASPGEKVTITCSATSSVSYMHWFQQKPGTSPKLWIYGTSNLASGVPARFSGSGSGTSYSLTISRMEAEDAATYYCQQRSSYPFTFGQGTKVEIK; 1.83

Now for the binder whose Affinity ELISA pH 6.0 we want.
Ask: Would you mind telling me what Affinity ELISA pH 6.0 value was observed for HC-T053E (antibody, V domains shown) VH: EVQLQQSGPELVKPGASVKISCKTSGYTFTEYTMHWMKQSHRKSLEWIGGINENNGGTGYNQKFKGKATLTVDKSSSTAYMELRSLTSEDSAVYFCARGSLYSYGNSYFDYWGQGTLVTVSS VL: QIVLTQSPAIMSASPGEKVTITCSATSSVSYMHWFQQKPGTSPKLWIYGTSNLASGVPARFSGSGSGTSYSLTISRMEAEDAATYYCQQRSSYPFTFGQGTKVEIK ?
Reply: 0.54
